Provenance of the data: the RNAGym collection of RNA variant scans (doi:10.7554/elife.90254)

B1: LINE1-full (parent)
chain: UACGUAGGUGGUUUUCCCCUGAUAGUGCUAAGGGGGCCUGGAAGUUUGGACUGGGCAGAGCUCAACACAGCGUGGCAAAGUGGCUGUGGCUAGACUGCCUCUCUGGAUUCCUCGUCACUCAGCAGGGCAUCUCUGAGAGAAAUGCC

variants of: B1; assay: self-cleavage, relative activity (ratio to wild type); higher = more cleavage; in vitro, sequencing; the parent is a self-cleaving ribozyme
Rule: self-cleavage of 1 or more gives label 1; anything lower gives label 0.

{"variantLabel": "U115A U119C", "classAssignment": "label 1"}
{"variantLabel": "G54A", "classAssignment": "label 0"}
{"variantLabel": "U26A U81C", "classAssignment": "label 0"}
{"variantLabel": "U12C A142G", "classAssignment": "label 1"}
{"variantLabel": "U9A U14G", "classAssignment": "label 0"}
{"variantLabel": "U14A A124U", "classAssignment": "label 1"}
{"variantLabel": "U14G U52A", "classAssignment": "label 1"}
{"variantLabel": "C98U", "classAssignment": "label 0"}
{"variantLabel": "U20A U112C", "classAssignment": "label 0"}
{"variantLabel": "U20G U96C", "classAssignment": "label 0"}
